Source of measurements: patent US20200048267A1

Target: OGA (Homo sapiens)
Construct: HEK293 cells inducible for P301L mutant human Tau (isoform 2N4R) were established at Janssen; endogenous in cells; host or cells: HEK293 cells inducible for P301L mutant human Tau (2N4R)
Sequence (O60502 1-916): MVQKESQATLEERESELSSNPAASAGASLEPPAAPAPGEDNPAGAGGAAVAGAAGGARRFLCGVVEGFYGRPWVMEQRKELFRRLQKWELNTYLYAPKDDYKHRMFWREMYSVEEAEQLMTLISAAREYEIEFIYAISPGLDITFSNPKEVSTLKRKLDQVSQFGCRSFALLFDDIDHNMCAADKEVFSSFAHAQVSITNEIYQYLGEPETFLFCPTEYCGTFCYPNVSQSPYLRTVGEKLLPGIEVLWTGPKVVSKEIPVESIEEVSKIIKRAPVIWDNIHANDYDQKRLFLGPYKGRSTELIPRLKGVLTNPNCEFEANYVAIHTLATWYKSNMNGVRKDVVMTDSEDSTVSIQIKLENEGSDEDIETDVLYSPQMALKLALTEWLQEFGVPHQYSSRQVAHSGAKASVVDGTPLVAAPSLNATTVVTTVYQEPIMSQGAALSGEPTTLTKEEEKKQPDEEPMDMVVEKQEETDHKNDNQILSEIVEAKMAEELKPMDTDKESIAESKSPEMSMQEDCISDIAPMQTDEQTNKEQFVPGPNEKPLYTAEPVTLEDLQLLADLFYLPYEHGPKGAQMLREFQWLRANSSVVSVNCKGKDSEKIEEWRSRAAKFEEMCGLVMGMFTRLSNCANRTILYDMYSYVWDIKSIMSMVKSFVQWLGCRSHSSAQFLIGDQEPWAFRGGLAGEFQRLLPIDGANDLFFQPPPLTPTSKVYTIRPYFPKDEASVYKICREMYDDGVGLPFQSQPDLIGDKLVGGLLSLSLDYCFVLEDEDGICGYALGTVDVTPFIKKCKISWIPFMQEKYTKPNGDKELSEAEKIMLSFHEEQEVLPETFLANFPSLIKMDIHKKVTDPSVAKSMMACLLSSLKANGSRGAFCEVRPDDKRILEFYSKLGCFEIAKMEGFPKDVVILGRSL
Experiment: OGA cellular assay (ICC detection of O-GlcNAcylated proteins in HEK293 cells inducible for P301L mutant human Tau)
Format: cell-based
Details: 6 hours incubation, read-out: CELLULAR hOGA, pEC50 (converted)
metric_name: EC50 (nM)

[P] CCc1cncc(N2CCC3(CCN(Cc4cnc(NC(C)=O)s4)C3)C2)n1 (centres unmarked)
[Q] CC(=O)Nc1ncc(CN2CCC3(CCN(c4cc(C)nc(C(F)(F)F)c4)C3)C2)s1 (centres unmarked)
[R] CCc1cc(N2CCC3(CCN(Cc4cnc(NC(C)=O)s4)C3)C2)cc(C)n1 (centres unmarked)
Asked: List items by EC50 in falling order. Arrange the labels as the request states and list them.
Given back: P, Q, R

----------
Molecular target: OGA (Homo sapiens, UniProt O60502)
Construct: HEK293 cells inducible for P301L mutant human Tau (isoform 2N4R) were established at Janssen; endogenous in cells; host or cells: HEK293 cells inducible for P301L mutant human Tau (2N4R)
Test: OGA cellular assay (ICC detection of O-GlcNAcylated proteins in HEK293 cells inducible for P301L mutant human Tau)
Assay type: cell-based
Details: 6 hours incubation
Procedure: HEK293 cells inducible for P301L mutant human Tau (isoform 2N4R) were established at Janssen. Thiamet-G was used for both plate validation (high control) and as reference compound (reference EC50 assay validation). OGA inhibition is evaluated through the immunocytochemical (ICC) detection of O-GlcNAcylated proteins by the use of a monoclonal antibody (CTD110.6; Cell Signaling, #9875) detecting O-GlcNAcylated residues as previously described (Dorfmueller et al. 2010 Chemistry & biology, 17:1250). […]
metric_name: Emax (%)

Some entries whose results are on file:
INSERT INTO measurements (molecule, system_under_test, metric_name, unit_abbrev, measured) VALUES
  ('CNc1cncc(N2CCC3(CCN(Cc4cnc(NC(C)=O)s4)C3)C2)n1 (stereo not drawn)', 'OGA (Homo sapiens, UniProt O60502)', 'Emax', '%', 25.1),
  ('Cc1cc(N2CCC3(CCN(Cc4ccc5nccnc5c4)C3)C2)cc(C)n1 (single isomer, unassigned)', 'OGA (Homo sapiens, UniProt O60502)', 'Emax', '%', 23.4),
  ('CC(=O)Nc1ncc(CN2CCC3(CCN(c4cc(C)ncc4C)C3)C2)s1 (stereo not drawn)', 'OGA (Homo sapiens, UniProt O60502)', 'Emax', '%', 87.3),
  ('CC(=O)Nc1ncc(CN2CCC3(CCN(c4cncc(C5CC5)n4)C3)C2)s1 (stereo not drawn)', 'OGA (Homo sapiens, UniProt O60502)', 'Emax', '%', 92.3),
  ('CC(=O)Nc1ncc(CN2CCC3(CCN(c4ncc(C)cc4C)C3)C2)s1 (stereo not drawn)', 'OGA (Homo sapiens, UniProt O60502)', 'Emax', '%', 88.8);

[A] Cc1cc(N2CCC3(CCN(C(C)c4ccc5scnc5c4)C3)C2)nc(C)n1.Cl (stereo not drawn)
[B] CC(=O)Nc1ncc(CN2CCC3(CCN(c4cc(C)cnc4C)C3)C2)s1 (stereo not drawn)
Asked: For this pair, A and B , which shows a numerically higher Emax? Answer = label.
Given back: B
(B: 87.8%, A: 38%)

[1] Cc1cc(N2CCC3(CCN(Cc4ccc5sc(C)nc5c4)C3)C2)nc(C)n1 (stereo not drawn)
[2] CC(=O)Nc1ncc(CN2CCC3(CCN(c4c(C)cncc4C)C3)C2)s1 (stereo not drawn)
Asked: For this pair, 1 and 2 , which shows a numerically higher Emax? Answer = label.
Given back: 2

[A] Cc1cc(N2CCC3(CCN(C(C)c4ccc5nccnc5c4)C3)C2)nc(C)n1.Cl (stereo not drawn)
[B] CCOc1cc(N2CCC3(CCN(Cc4cnc(NC(C)=O)s4)C3)C2)cc(C)n1 (stereo not drawn)
[C] CC(=O)Nc1ncc(CN2CCC3(CCN(c4cncc(C(F)(F)F)c4)C3)C2)s1 (stereo not drawn)
[D] CC(=O)Nc1ncc(CN2CCC3(CCN(c4cc(C)nc(C)c4)C3)C2)s1 (stereo not drawn) [Product 1]
[E] Cc1cc(N2CCC3(CCN(Cc4nc5ccccc5[nH]4)C3)C2)nc(C)n1 (stereo not drawn)
Asked: Ascending by Emax, please: list the molecules accordingly. Arrange the labels as the request states and list them.
Given back: E, A, C, B, D

[A] CC(=O)Nc1ncc(CN2CCC3(CCN(c4cc(C)nc(C)n4)C3)C2)s1 (stereo not drawn)
[B] CC(=O)Nc1cnc(N2CCC3(CCN(C(C)c4ccc5c(c4)OCO5)C3)C2)nc1 (stereo not drawn)
[C] CCc1cncc(N2CCC3(CCN(Cc4cnc(NC(C)=O)s4)C3)C2)n1 (stereo not drawn)
Asked: Rank by Emax (largest to smallest). Arrange the labels as the request states and list them.
Given back: A, C, B
(A: 85.4%, C: 56.4%, B: 19.5%)
